biological target: rat TRPV1 (Rattus norvegicus, UniProt O35433); assay: Functional assay: block of capsaicin-induced Ca2+ influx, rat assay (rTRPV1/HEK293, FLIPR); details: rTRPV1/HEK293 cells, capsaicin challenge, Fluo-3 fluorescence; mean; > value = solubility limit in assay medium
Sequence (O35433 whole entry): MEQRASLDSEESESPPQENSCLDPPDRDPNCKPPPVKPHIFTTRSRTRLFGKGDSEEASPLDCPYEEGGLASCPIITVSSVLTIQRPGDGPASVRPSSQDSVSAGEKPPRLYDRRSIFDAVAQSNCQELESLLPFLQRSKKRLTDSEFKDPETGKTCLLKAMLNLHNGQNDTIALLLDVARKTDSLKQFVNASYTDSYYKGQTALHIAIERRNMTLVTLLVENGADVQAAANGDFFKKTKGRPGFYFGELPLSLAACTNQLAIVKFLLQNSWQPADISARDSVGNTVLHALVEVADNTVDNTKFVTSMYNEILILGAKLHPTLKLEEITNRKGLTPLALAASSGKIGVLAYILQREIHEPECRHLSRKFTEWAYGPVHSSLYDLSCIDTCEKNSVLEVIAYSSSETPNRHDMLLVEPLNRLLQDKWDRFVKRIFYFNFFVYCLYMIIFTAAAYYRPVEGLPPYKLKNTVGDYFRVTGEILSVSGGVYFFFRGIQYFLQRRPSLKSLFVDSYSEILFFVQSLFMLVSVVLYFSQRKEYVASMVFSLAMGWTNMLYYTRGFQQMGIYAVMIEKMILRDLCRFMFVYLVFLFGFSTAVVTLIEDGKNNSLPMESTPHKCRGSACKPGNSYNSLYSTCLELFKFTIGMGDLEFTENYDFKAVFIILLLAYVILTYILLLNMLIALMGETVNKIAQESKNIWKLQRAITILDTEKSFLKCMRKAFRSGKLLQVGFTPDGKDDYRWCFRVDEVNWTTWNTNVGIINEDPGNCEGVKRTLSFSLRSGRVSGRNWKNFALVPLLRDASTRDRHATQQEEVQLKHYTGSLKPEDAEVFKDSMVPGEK
Property label: IC50 (nM)
Provide the reading as a plain figure in nM.

[ask] Tell me its IC50 given Cc1cccc(C)c1Nc1nc2c(Nc3ccc(OC4CCOC4)cc3)ncnc2s1 (racemic) as the entry.
[reply] 1860

More entries:
[ask] Tell me its IC50 given Cc1cccc(C)c1Nc1nc2c(Nc3ccc(S(=O)(=O)N(C)C)cc3)ncnc2s1 as the entry.
[reply] 7
